Assay Notes: Boiling temperature at pressure P
Experimental Context: 101 kPa; Liquid; Ebulliometric method (Recirculating still)
Numbers after ± are expanded uncertainties.
Provide the reported Boiling temperature at pressure P of each item.

[ask] // Boiling temperature at pressure P lookup, key: CC(=O)CC(C)C
[reply] 117.4 ± 1.6 °C

[ask] # query: Boiling temperature at pressure P of entry CCOC(C)=O [ethyl acetate]
[reply] 77.1 ± 1.6 °C

[ask] // returns reported Boiling temperature at pressure P for input O=Cc1ccco1
[reply] 162 ± 1.6 °C

[ask] If you can, please state the reported Boiling temperature at pressure P value of OC1CCCC1 .
[reply] 139.4 ± 1.6 °C
